These measurements were taken from PubChem BioAssay.

EXPERIMENTAL DETAILS: viability gain of MRP-1-high H69AR cells under doxorubicin, pilot screen, MRP-1 activator project, CellTiter-Glo, duplicate (AID 807);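 also: compound pretreatment 18-22 h then 72 h combined with doxorubicin; 0% = doxorubicin alone and 100% = vehicle without doxorubicin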
EXPERIMENTAL PARAMETERS: H69AR viability with doxorubicin, CellTiter-Glo luminescence; at 10 µM; hits give high values
MEASURED ATTRIBUTE: viability increase (%)

>>> reported_result("Cc1ccc(C)c(N(C)S(=O)(=O)c2cccc3nsnc23)c1")
-3.51
>>> reported_result("Cc1ccc(C(c2sc3ncnn3c2O)N2CCC(C)CC2)cc1 (stereo not drawn)")
3.76
>>> reported_result("O=C(O)C1CCCN1S(=O)(=O)c1cc(Cl)ccc1Cl (stereo not drawn)")
1.55
>>> reported_result("CCOC(=O)C1CCCCN1C(=O)CCc1c(C)nc2cc(-c3ccccc3)nn2c1C (stereo not drawn)")
1.11
>>> reported_result("CCOC(=O)c1ccccc1Nc1cc(C)nc2nc(C)nn12")
-5.14
>>> reported_result("CCOc1ccc(-c2nc(CSCC(=O)N3CCN(C(=O)c4ccco4)CC3)c(C)o2)cc1")
-2.43
>>> reported_result("COc1ccc(N=C2SC(C(=O)O)CC(=O)N2C)cc1 (stereo not drawn)")
-0.87
>>> reported_result("Cc1ccccc1NC(=O)CC1SC(=NC2CCCCC2)NC1=O (stereo not drawn)")
-0.62
>>> reported_result("c1nc(N2CCCCC2)c2[nH]cnc2n1")
-5.39
>>> reported_result("CCN1CCCC1CNC(=O)C1c2ccccc2C(=O)N(CCOC)C1c1ccc(F)cc1 (stereo not drawn)")
-1.76
>>> reported_result("O=C(Cn1cc2c(n1)CCCC2)NCc1cccs1")
-0.37
>>> reported_result("Cc1cc(C)nc(SCC(=O)NCc2ccco2)n1")
-5.58
>>> reported_result("CC(=O)N1CCc2cc(C(=O)CN3CCN(C(=O)c4ccco4)CC3)ccc21")
-2.02
>>> reported_result("CCOC(=O)c1c(NC(C)=O)no[n+]1[O-]")
-2.24
>>> reported_result("CCOC(=O)c1ccccc1N1C(=O)CSC1=S")
-4.62
>>> reported_result("COc1ccc(OC)c2sc(NC(=O)c3ccc(Cl)s3)nc12")
-3.79
>>> reported_result("COc1ccc(S(=O)(=O)Cc2ccc(C(=O)N3CCC(C(N)=O)CC3)o2)cc1")
-0.31
>>> reported_result("CCOc1ccccc1NC(=O)Cn1cnc2c(nnn2-c2cccc(OC)c2)c1=O")
-1.23
>>> reported_result("Cc1c(C(=O)NCc2ccc3c(c2)OCO3)oc2ccc(S(=O)(=O)N3CCCCCC3)cc12")
-1.19
>>> reported_result("CCCN1C(=O)c2cc(C(=O)NCc3cccs3)ccc2C1O (stereo not drawn)")
-0.99
>>> reported_result("CCOC(=O)NCc1ccc2[nH]c(C)cc2c1")
-1.52
>>> reported_result("Cn1nc(-c2ccc(Cl)cc2)c2cc(C(=O)N3CCN(c4ccccc4)CC3)sc21")
-5.26
>>> reported_result("Cn1c(Cn2c(=O)sc3ccccc32)nnc1SCC(=O)Nc1cccc(Cl)c1")
-0.83

====

EXPERIMENTAL DETAILS: RAM signaling pathway blockade in yeast – S. cerevisiae, Pdr1DBD-CYC8 efflux-inhibited sensitized strain, primary screen (AID 1298);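 also: 0% = DMSO untreated cells without growth and 100% = 10 µM 1-NA-PP1 full growth; higher means more yeast growth rescued from 5-FOA killing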
EXPERIMENTAL PARAMETERS: S. cerevisiae cbk1-as DSE1-URA3 strain, 5-FOA growth OD615, 2 d; at 50 µM; hits give high values
Parameter RAM network inhibition: see the listing below.
MEASURED ATTRIBUTE: RAM network inhibition (%)

>>> reported_result("N#CC1=C(SCC(N)=O)NC(=O)CC1c1ccccc1Cl (stereo not drawn)")
-0.49
>>> reported_result("Cc1ccc(NC(=O)CSc2nnc(Cc3cccn3C)n2-c2ccc(F)cc2)c(C)c1")
2.03
>>> reported_result("C=CCOn1c(=O)c(C)[n+]([O-])c2ccccc21")
5.63
>>> reported_result("Cc1cc(O)c(C=Nc2cccc(Cl)c2)c(=O)o1")
-0.93
>>> reported_result("O=C(C1COc2ccccc2O1)N1CCn2c(nc3ccccc32)C1 (stereo not drawn)")
4.61
>>> reported_result("CCOC(=O)N1CCN(C(=O)Cn2c(=O)sc3ccccc32)CC1")
5.71
>>> reported_result("COCn1c(-c2cccc(Br)c2)nc2ccccc21")
3.8
>>> reported_result("CCCc1[nH]nc2c1C(C1CCCCC1)C(C#N)=C(N)O2 (stereo not drawn)")
1.58
>>> reported_result("CCSc1nnc(Cn2c(=O)sc3ccccc32)n1-c1ccccc1C")
8.51
>>> reported_result("COC(=O)c1cn(NC(=O)CC2CCCCC2)c(=O)c2ccccc12")
2.22
>>> reported_result("CCCc1c(C(=O)OCC)[nH]c2c1C(=O)CCC2")
2.61
>>> reported_result("CSc1nc2sc3c(c2c(=O)n1C)CCCC3")
3.94
>>> reported_result("COc1ccccc1NC(=O)CSc1nnc(Cn2c(=O)sc3ccccc32)n1C")
4.37
>>> reported_result("Cc1c(=O)n(OCc2ccccc2)c2ccccc2[n+]1[O-]")
9.74
>>> reported_result("Cc1cc(C)c2c(n1)nn1c(C)c(CCC(=O)NCc3ccco3)c(C)nc21")
2.09
>>> reported_result("CCCOC(=O)C1=C(C)NC2=C(C(=O)CC(C)(C)C2)C1c1ccc(N(C)C)cc1 (stereo not drawn)")
6.21
>>> reported_result("Cc1ccc2c(c1)c1c(n2CC(O)CN2C(=O)CNC2=O)C(=O)CCC1 (stereo not drawn)")
3.57
>>> reported_result("CCCOc1ccc2ccccc2c1/C=N/n1c(C)nnc1-n1nc(C)cc1C")
-2.3
>>> reported_result("COC(=O)c1nc2n(n1)C(c1cccc(Cl)c1)C1=C(CC(C)(C)CC1=O)N2 (stereo not drawn)")
-0.77
>>> reported_result("Cc1cc(C)cc(NC(=O)CSc2nc3c(c(=O)n2C)SC(C)C3)c1 (stereo not drawn)")
6.37
>>> reported_result("COc1cccc(C2CC(c3ccccc3OC)n3ncnc3N2)c1 (stereo not drawn)")
-0.26
>>> reported_result("COc1cc(NC(=O)c2cc3c(=O)n(C)c4ccccc4c3n2C)cc(OC)c1OC")
5.77
>>> reported_result("O=C(Oc1ccccc1)c1cccc(N2C(=O)CCC2=O)c1")
1.74

====

Reported inhibition values follow for various compounds
EXPERIMENTAL DETAILS: inhibitors of the yeast RAM network, pilot screen, dse1pr::URA3 reporter, 5-FOA selection (AID 869);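 also: 0% = DMSO wells with no growth and 100% = 10 µM 1-NA-PP1 with full growth; RAM network block rescues cells from 5-FOA so hits raise OD615 growth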
EXPERIMENTAL PARAMETERS: S. cerevisiae dse1pr::URA3 5-FOA growth, OD615, 2 d; at 10 µM; hits give high values; strain carries analog-sensitive mutant Cbk1 kinase
MEASURED ATTRIBUTE: inhibition (%)

>>> reported_result("COC(=O)C1C(=O)c2c([nH]c(C(=O)OC3CCCCC3)c2C)CC1C (stereo unspecified)")
0.105
>>> reported_result("COc1cc(C2C(C(=O)Nc3ccccc3OC)=C(C)Nc3ncnn32)ccc1O (stereo unspecified)")
1.42
>>> reported_result("O=C1Nc2ccc(S(=O)(=O)N3CCCCCC3)c3cccc1c23")
1.57
>>> reported_result("COc1ccc(Br)cc1S(=O)(=O)N1CCN=C1C")
0.79
>>> reported_result("COC(=O)C1=C(C)NC(=O)NC1C1CC=CCC1 (stereo unspecified)")
3.1
>>> reported_result("COc1ccc(C(=O)c2coc3ccc(O)c(CN4CCOCC4)c23)cc1")
1.79
>>> reported_result("Cn1c(CNC(=O)c2ccc(F)cc2)nc2ccccc21")
0.325
>>> reported_result("Cc1ccccc1-c1nc(CS(=O)CC(=O)NCc2ccccc2)c(C)o1 (stereo unspecified)")
0.655
>>> reported_result("COc1cccc(CN2C(=O)CCC2(C)C(=O)NC2CCCCC2)c1 (stereo unspecified)")
-0.375
>>> reported_result("O=C(c1ccccc1F)N1CCN=C1SCc1cccnc1")
0.695
>>> reported_result("COc1ccc(-c2nc(Cn3c(SCc4cccc(F)c4)nc4ccncc43)c(C)o2)cc1OC")
1

====

EXPERIMENTAL DETAILS: inhibitors of the yeast RAM network, pilot screen, dse1pr::URA3 reporter, 5-FOA selection (AID 869);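 also: 0% = DMSO wells with no growth and 100% = 10 µM 1-NA-PP1 with full growth; RAM network block rescues cells from 5-FOA so hits raise OD615 growth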
EXPERIMENTAL PARAMETERS: S. cerevisiae dse1pr::URA3 5-FOA growth, OD615, 2 d; at 10 µM; hits give high values; strain carries analog-sensitive mutant Cbk1 kinase
MEASURED ATTRIBUTE: inhibition (%)

>>> reported_result("CC(=O)Oc1cccc(N2C(=O)C3C(C2=O)C2C=CC3C23CC3)c1 (configuration not stated)")
0.125
>>> reported_result("O=C(Cc1n[nH]c(=O)c2ccccc12)NCc1ccccn1")
1.48
>>> reported_result("Cc1cc(NC(=O)CSc2nc3c([nH]c4ccccc43)c(=O)n2-c2cccc(C(F)(F)F)c2)no1")
2.41
>>> reported_result("COc1ccc(-c2nc(CS(=O)CC(=O)NCc3cccnc3)c(C)o2)cc1 (configuration not stated)")
1.14
>>> reported_result("Cc1cc(C)c2c(N)c(C(=O)Nc3nccs3)sc2n1")
2
>>> reported_result("Cc1cccc(N2C(=O)SC(N(CC(=O)O)c3cccc(C)c3)C2=O)c1 (configuration not stated)")
1.24
>>> reported_result("CCOC(=O)CNC(=O)C(NC(=O)C1CCC(C)CC1)C(C)CC (configuration not stated)")
0.95
>>> reported_result("Cc1nnc(NC(=O)CSc2nc3c(c(=O)n2CCc2ccccc2)SC(C)C3)s1 (configuration not stated)")
3.13
>>> reported_result("CCN(CC)c1ccc(NC(=O)CN2C(=O)CSc3ncccc32)c(C)c1")
1.34
>>> reported_result("Cn1c(=O)c2nc(-c3ccc(Cl)cc3Cl)oc2c2ccccc21")
2.31
>>> reported_result("COc1cc(NS(=O)(=O)c2ccc3c(c2)oc(=O)n3C)cc(OC)c1OC")
-0.355
>>> reported_result("CCN1CCN(CC(=O)Nc2ccc3c(c2)OCO3)C(=O)C1=O")
0.7
>>> reported_result("COc1ccc(-n2nnc3c(=O)n(CC(=O)N4CCCCC4)cnc32)cc1")
0.975
>>> reported_result("O=C(CN1CCN(CC(=O)Nc2ccccn2)CC1)Nc1ccccn1")
0.705
>>> reported_result("CCOC(=O)N1CCN(C(=O)NC23CC4CC(CC(C4)C2)C3)CC1")
2.83
>>> reported_result("CCOC(=O)C1CCCN(c2c(NCCCN3CCCC(C)C3)c(=O)c2=O)C1 (configuration not stated)")
2.96
>>> reported_result("CC(=O)Nc1ccc(S(=O)(=O)Nc2nc(C)cc(-n3nc(C)cc3C)n2)cc1")
1.25
>>> reported_result("O=C1NC(c2ccco2)Nc2sc3c(c21)CCN(Cc1ccccc1)C3 (configuration not stated)")
1.84
>>> reported_result("CC1(C)Cc2c(C#N)c(NC3CCCCC3)nc(-c3ccco3)c2CO1")
3.23
>>> reported_result("O=C(NC1CCN(Cc2ccccc2)CC1)C1CCCN(c2nnc(-n3cccc3)s2)C1 (configuration not stated)")
0.085
>>> reported_result("CCOC(=O)c1c(NC(=O)c2cc(C3CC3)on2)sc2c1CCCC2")
1.49
>>> reported_result("C=CCC(=O)OCC(=O)Nc1ccc(Oc2ccccc2)cc1")
-0.25
